experiment: suppressors of polyQ aggregation in yeast, 75Q-TubU reporter (AID 1593); details: Yeast 75Q polyglutamine aggregation reporter
Measured score by item

Example entries and their recorded answers appear below.
Input: Reported score for CC(N)Cc1ccccc1 (stereo unspecified) : what is it?
Output: 0.93

Input: Reported score for CC(C)N(CCC(C(N)=O)(c1ccccc1)c1ccccn1)C(C)C (stereo unspecified) : what is it?
Output: 1.39

Input: Reported score for O=[N+]([O-])c1cc(O)c(O)c([N+](=O)[O-])c1 : what is it?
Output: 1.27

Input: Reported score for O=C1C=CC(=O)c2c(O)cccc21 : what is it?
Output: 0.54

Input: Reported score for O=c1[nH]oc2c1CCNC2 : what is it?
Output: 1.55

Turning now to a further compound:
Input: Reported score for C[C@@H]1CC[C@H]2[C@@H](C)C(=O)O[C@@H]3OC4(C)CC[C@@H]1[C@]32OO4 : what is it?
Output: 0.49

----------
experiment: stimulators of nuclear beta-catenin in C2C12, primary screen, imaging, WNT3A-conditioned medium, mouse C2C12, NPC library (AID 1117326); details: at 10 µM, stronger effect = higher value
endpoint: nuclear beta-catenin stimulation (%)
State just the number; it will be interpreted in %.

Input: Reported nuclear beta-catenin stimulation for CC1(C)C(C=C(Cl)Cl)C1C(=O)OC(C#N)c1cccc(Oc2ccccc2)c1 (stereo unspecified) : what is it?
Output: 0.7

Input: Reported nuclear beta-catenin stimulation for C[C@@H]1CN(C2CCC(C#N)(c3ccc(F)cc3)CC2)CC[C@]1(C(=O)O)c1ccccc1 (stereo partly specified) : what is it?
Output: 0

Input: Reported nuclear beta-catenin stimulation for CCOP(=S)(OCC)Oc1cc(C)nc(C(C)C)n1 : what is it?
Output: -0.5

Input: Reported nuclear beta-catenin stimulation for COc1cccc([C@@]2(O)CCCC[C@@H]2CN(C)C)c1 : what is it?
Output: 4.3

Input: Reported nuclear beta-catenin stimulation for Oc1ccc(Cl)cc1 : what is it?
Output: 0.8

Continuing:
Input: Reported nuclear beta-catenin stimulation for Cc1cccc(C)c1NC(=O)CN1CCCC1=O : what is it?
Output: -1.9

Input: Reported nuclear beta-catenin stimulation for Cc1ncc(CNC(=O)N(CCCl)N=O)c(N)n1 : what is it?
Output: 3

Input: Reported nuclear beta-catenin stimulation for Nc1ccccc1C(=O)O : what is it?
Output: 1.8

Input: Reported nuclear beta-catenin stimulation for O=C1NCN(c2ccccc2)C12CCN(CCCOc1ccc(F)cc1)CC2 : what is it?
Output: 0.4

Input: Reported nuclear beta-catenin stimulation for C[C@]12CC[C@H]3[C@@H](CC[C@@]45O[C@H]4C(O)=C(C#N)C[C@]35C)[C@H]1CC[C@H]2O : what is it?
Output: 1.5

Input: Reported nuclear beta-catenin stimulation for O=[N+]([O-])O[C@H]1CO[C@H]2[C@@H]1OC[C@H]2O[N+](=O)[O-] : what is it?
Output: 1.4

----------
assay: ovarian cancer cell viability with rucaparib, profiling panel, oncology-focused library, rucaparib conditional (AID 1508598); conditions: patient-derived ovarian cancer cells, CellTiter-Glo viability, 144 h; at 0.00122 µM; OCI-C5x cells; with rucaparib 10 µM; 100% = cells with rucaparib alone
Active and inactive are the calls of the source.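 Rule for the calls: active = normalized viability below 100% at a tested concentration; inactive = the rest.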
Respond using exactly one of the listed classes: true (1) = active, false (0) = inactive

Input: Short answer needed: outcome of this test for O=S(=O)(CC1CS1)c1ccc(Oc2ccccc2)cc1 (stereo not given) ?
Output: false (0)

Input: Short answer needed: outcome of this test for C/C(=C\c1csc(C)n1)[C@H]1C[C@@H]2O[C@]2(C)CCC[C@H](C)[C@H](O)[C@@H](C)C(=O)C(C)(C)[C@H](O)CC(=O)O1 ?
Output: true (1)

Input: Short answer needed: outcome of this test for Cc1sc2c(c1C)C(c1ccc(Cl)cc1)=N[C@@H](CC(N)=O)c1nnc(C)n1-2 ?
Output: false (0)

Input: Short answer needed: outcome of this test for Cn1c(CCCC(=O)O)nc2cc(N(CCCl)CCCl)ccc21 ?
Output: true (1)

Continuing:
Input: Short answer needed: outcome of this test for CC(C)[C@@]12O[C@@H]1[C@@H]1O[C@]13[C@]1(O[C@@H]1C[C@@H]1C4=C(CC[C@@]13C)C(=O)OC4)[C@@H]2O ?
Output: true (1)

----------
assay: sensitizers of A549 cells to miR-34 induction, primary screen, imaging, A549 dox-inducible miR-34, nuclei and caspase counts (AID 1347080); conditions: A549 miR-34 inducible, Hoechst nuclei count, 48 h; stronger effect = lower value
Measured fold change by item
Number only, please.

Input: Reported fold change for COc1ccc(C(=O)O[C@H]2CC[C@@]3(C)[C@@H]4CC[C@H]5[C@]6(O)C[C@H](O)[C@@]7(O)[C@@H](CN8C[C@@H](C)CC[C@H]8[C@@]7(C)O)[C@]6(O)C[C@@]53O[C@]24O)cc1OC : what is it?
Output: 0.935

Input: Reported fold change for Oc1ccc2c3c1O[C@H]1c4oc5ccccc5c4C[C@@]4(O)C(C2)N(CC2CC2)CC[C@]314 : what is it?
Output: 0.944

Input: Reported fold change for CCN(CC)c1ncnc2c1ncn2[C@@H]1O[C@H](COP(=O)(O)OP(=O)(O)C(Br)(Br)P(=O)(O)O)[C@@H](O)[C@H]1O : what is it?
Output: 1.01

Input: Reported fold change for CC(N)c1cccc(Cl)c1Cl (stereo not given) : what is it?
Output: 1.05

Input: Reported fold change for CC(C)CC(NP(=O)(O)OC1OC(C)C(O)C(O)C1O)C(=O)NC(Cc1c[nH]c2ccccc12)C(=O)O (stereo not given) : what is it?
Output: 0.95

Continuing:
Input: Reported fold change for Clc1ccc(CON=C(Cn2ccnc2)c2ccc(Cl)cc2Cl)c(Cl)c1 : what is it?
Output: 1.28

Input: Reported fold change for CNC(C)[C@@H]1CC[C@@H](N)[C@@H](OC2[C@@H](N)C[C@@H](N)[C@H](OC3OC[C@](C)(O)[C@H](NC)[C@H]3O)[C@H]2O)O1 (stereo not given in full) : what is it?
Output: 0.833

Input: Reported fold change for O=[N+]([O-])c1ccc([As](=O)(O)O)cc1 : what is it?
Output: 0.887

Input: Reported fold change for C[C@]12CC[C@H]3[C@@H](CCC4=CC(=O)CC[C@@H]43)[C@@H]1CC[C@@H]2O : what is it?
Output: 0.927

Input: Reported fold change for N#Cc1cnn(-c2ccc(Cl)cc2)c1N : what is it?
Output: 0.852

Input: Reported fold change for C#CCN[C@H](C)Cc1ccccc1 : what is it?
Output: 0.962

Input: Reported fold change for C[C@]12CC(=CO)C(=O)CC1CCC1C2CC[C@@]2(C)C1CC[C@]2(C)O (stereo not given in full) : what is it?
Output: 0.96

Input: Reported fold change for NNC(=O)c1ccc(O)cc1 : what is it?
Output: 0.976

----------
system: F380Y/beta4; assay: modulators of BK channel variants, profiling panel, selectivity assay, cell-based, U2OS BacMam, thallium flux, beta subunits (AID 1259406); settings: at 30 µM;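 further: initial slope of Thallos dye fluorescence rise after thallium is added; log ratio against the mean of 0.3% DMSO vehicle wells on the same plate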
endpoint: log fold change Tl+ flux
Number only, please.

Example entries and their recorded answers appear below.
Input: Reported log fold change Tl+ flux for CSC(=NCc1ccccc1Cl)NC(N)=N[N+](=O)[O-] : what is it?
Output: 0.0594

Input: Reported log fold change Tl+ flux for CC(C)N(CCC(C(N)=O)(c1ccccc1)c1ccccn1)C(C)C (stereo unspecified) : what is it?
Output: 0.017

Input: Reported log fold change Tl+ flux for Cc1ccc(-c2nc3ccc(C)cn3c2CC(=O)N(C)C)cc1 : what is it?
Output: -0.00795

Continuing:
Input: Reported log fold change Tl+ flux for CC(C)[C@]12O[C@H]1[C@@H]1O[C@]13[C@]1(O[C@H]1C[C@H]1C4=C(CC[C@@]13C)C(=O)OC4)[C@@H]2O : what is it?
Output: 0.00828

Input: Reported log fold change Tl+ flux for COc1ccc2[nH]cc(CCN)c2c1 : what is it?
Output: -0.0167

Input: Reported log fold change Tl+ flux for CNCC(O)c1ccc(O)cc1 (stereo unspecified) : what is it?
Output: -0.01

----------
experiment: sensitizers of A549 cells to miR-34 induction, primary screen, imaging, A549 dox-inducible miR-34, nuclei and caspase counts (AID 1347080); conditions: A549 miR-34 inducible, Hoechst nuclei count, 48 h; stronger effect = lower value
Measured fold change by item
Number only, please.

Input: Reported fold change for Oc1ccc2c3c1O[C@H]1c4[nH]c5ccccc5c4C[C@@]4(O)C(C2)N(CC2CC2)CC[C@]314 : what is it?
Output: 1.03

Continuing:
Input: Reported fold change for C=C1[C@@H](C)[C@H]2[C@H](Cc3ccccc3)NC(=O)[C@]23OC(=O)/C=C/[C@H](O)CCC[C@@H](C)C/C=C/[C@H]3[C@@H]1O : what is it?
Output: 1.14

Input: Reported fold change for COC(=O)N1CCN(C(=O)Cc2ccc(Cl)c(Cl)c2)C(CN2CCCC2)C1 (centres undefined) : what is it?
Output: 0.961

Input: Reported fold change for COc1ccc(C(=O)c2c(C)n(CCN3CCOCC3)c3cc(I)ccc23)cc1 : what is it?
Output: 1.09
